Listed next: entries and their corresponding relative cell viability.
# Tested on: HL-1
# experimental.protocol: relative cell viability (CellTiter-Glo) vs DMSO control (% of DMSO control); higher = more viable cells
# condition.context: oxygen condition: hypoxia 48 h (1% O2) + reoxygenation 24 h; 1000 nM
Structures can show the parent of a compound that is named as a salt.
Simply state the number, no unit and no words.

compound	assayed.target	relative cell viability
O=C(CCCCCCC(=O)Nc1ccccc1)NO [Vorinostat]	HL-1	85
CN(C)CCN(Cc1ccccc1)c1ccccn1 [Tripelennamine HCl]	HL-1	88
CC(C)NCC(O)COc1ccc(CCOCC2CC2)cc1 (centres undefined) [Betaxolol]	HL-1	100
CCCCCN(C)CCC(O)(P(=O)(O)O)P(=O)(O)O [Ibandronate sodium]	HL-1	93.1
CCCN(CCC)S(=O)(=O)c1ccc(C(=O)O)cc1 [Probenecid]	HL-1	108

**Query** What does the data say about its relative cell viability? Entry: NS(=O)(=O)c1cc2c(cc1Cl)N=CNS2(=O)=O [Chlorothiazide]
**Result** 113

**Query** Now the compound CCc1ccc(CCOc2ccc(CC3SC(=O)NC3=O)cc2)nc1 (centres undefined) [Pioglitazone hydrochloride]
**Result** 103

**Query** Now the compound Cl.N=C(N)NCCC[C@H](N)C(=O)O [L-Arginine HCl]
**Result** 104

**Query** Now the compound CC(=O)Oc1ccccc1C(=O)O [Aspirin]
**Result** 90.7

**Query** Now the compound CCCCN1CCCCC1C(=O)Nc1c(C)cccc1C (centres undefined) [Bupivacaine hydrochloride]
**Result** 102

**Query** Now the compound Cc1cc(C#N)cc(C)c1Oc1nc(Nc2ccc(C#N)cc2)nc(N)c1Br [Etravirine]
**Result** 109

**Query** Now the compound Cc1ccc(S(=O)(=O)NC(=O)NN2CC3CCCC3C2)cc1 (centres undefined) [Gliclazide]
**Result** 111

**Query** Now the compound CC(C)(C)c1ccc(C(O)CCCN2CCC(C(O)(c3ccccc3)c3ccccc3)CC2)cc1 (centres undefined) [Terfenadine]
**Result** 94.4

**Query** Now the compound CCCCNc1cc(C(=O)O)cc(S(N)(=O)=O)c1Oc1ccccc1 [Bumetanide]
**Result** 110

**Query** Now the compound COC(=O)[C@H](c1ccccc1Cl)N1CCc2sccc2C1 [Clopidogrel]
**Result** 106

**Query** Now the compound Cc1cc(C)nc(NS(=O)(=O)c2ccc(N)cc2)n1 [Sulfamethazine]
**Result** 104

**Query** Now the compound Clc1ccc(C(Cn2ccnc2)OCc2ccc(Sc3ccccc3)cc2)c(Cl)c1 (centres undefined) [Fenticonazole nitrate]
**Result** 105

**Query** Now the compound Oc1ccc(OCc2ccccc2)cc1 [Monobenzone]
**Result** 110

**Query** Now the compound OC[C@@H](O)[C@@H](O)[C@H](O)[C@@H](O)CO [Sorbitol]
**Result** 98

**Query** Now the compound CC(C)OC(=O)C(C(=O)OC(C)C)=C1SC=CS1 [Malotilate]
**Result** 115

**Query** Now the compound CC(=O)O[C@@]12CO[C@@H]1C[C@H](O)[C@@]1(C)C(=O)[C@H](O)C3=C(C)[C@@H](OC(=O)[C@H](O)[C@@H](NC(=O)OC(C)(C)C)c4ccccc4)C[C@@](O)([C@@H](OC(=O)c4ccccc4)[C@H]21)C3(C)C [Docetaxel]
**Result** 27.2

**Query** Now the compound Clc1ccc2c(c1)C(N1CCNCC1)=Nc1ccccc1O2 [Amoxapine]
**Result** 104

**Query** Now the compound CCOC(=O)C1=C(C)NC(C)=C(C(=O)OCC)C1c1ccccc1/C=C/C(=O)OC(C)(C)C [Lacidipine]
**Result** 100

**Query** Now the compound CC[C@]1(O)C[C@@H]2CN(CCc3c([nH]c4ccccc34)[C@@](C(=O)OC)(c3cc4c(cc3OC)N(C)[C@H]3[C@@](O)(C(=O)OC)[C@H](OC(C)=O)[C@]5(CC)C=CCN6CC[C@]43[C@@H]65)C2)C1 [Vinblastine]
**Result** 43.5
